TEST NAME: in vitro
STUDY CONDITIONS: human, hela cells, % viability
Field: viability at 28.5 h, 10 µM. Provide a value for each of the molecules that follow.
Numbers only here, please. The scale is %.

## Input Entry `COCC(=O)N1CCN(C(=O)c2cccc(F)c2)C[C@H]1C(=O)OC` : reported viability at 28.5 h, 10 µM = ?
## Output 89.4

## Input Entry `O=S(=O)(N1CCCCCC1)N1CCN(S(=O)(=O)N2CCOCC2)CC1` : reported viability at 28.5 h, 10 µM = ?
## Output 100

## Input Entry `CS(=O)(=O)c1nnn(CC#N)n1` : reported viability at 28.5 h, 10 µM = ?
## Output 90

## Input Entry `Cc1ccc(Nc2nc(O)ns2)cc1` : reported viability at 28.5 h, 10 µM = ?
## Output 81

## Input Entry c1ccc(COc2cccc(CNCCN3CCOCC3)c2)cc1 [CBK278226C] : reported viability at 28.5 h, 10 µM = ?
## Output 95.8

## Input Entry COc1cccc(C(=O)Nc2cc3c(cc2C(O)c2ccccc2Cl)OCCO3)c1 (stereo not shown) : reported viability at 28.5 h, 10 µM = ?
## Output 99.3

## Input Entry CCCCN=C(NCCCn1cccn1)N1CCCN(C(C)=O)CC1 [CBK304273I] : reported viability at 28.5 h, 10 µM = ?
## Output 107

## Input Entry O=C(c1n[nH]nc1-c1ccccc1)N1CCCC(C(F)(F)F)C1 (stereo not shown) : reported viability at 28.5 h, 10 µM = ?
## Output 96.1

## Input Entry `Cc1nc(CC(=O)Nc2nn(C)c3cccc(N4CCOCC4)c23)cs1` : reported viability at 28.5 h, 10 µM = ?
## Output 89.7

## Input Entry `Nc1nnc(SCc2nc3ccccc3n2Cc2ccccc2)s1` : reported viability at 28.5 h, 10 µM = ?
## Output 92.1

###

Field: viability at 28.5 h, 10 µM. Provide a value for each of the compounds that follow.
TEST NAME: in vitro
STUDY CONDITIONS: human, hela cells, % viability
Numbers only here, please. The scale is %.

## Input Entry c1ccc(OCCN2CCCN(c3cc(OCC4COc5ccccc5O4)ncn3)CC2)cc1 (centres unmarked) [CBK083395T] : reported viability at 28.5 h, 10 µM = ?
## Output 87.7

## Input Entry `CCC(=O)N1CCC2(CCCC[C@H]3CN(C(C)=O)CC[C@H]3NC(=O)CNC2=O)CC1` : reported viability at 28.5 h, 10 µM = ?
## Output 96.6

## Input Entry `O=[N+]([O-])c1cccc(-c2csc(N/N=C\c3cccc(O)c3)n2)c1` : reported viability at 28.5 h, 10 µM = ?
## Output 95.5

## Input Entry `CN(CC(=O)NC1CCCCC1)S(=O)(=O)c1ccc(F)cc1` : reported viability at 28.5 h, 10 µM = ?
## Output 98.6

## Input Entry `O=C(C1CCCC1)N1CCC(n2c(=O)oc3ccc(Cl)cc32)CC1` : reported viability at 28.5 h, 10 µM = ?
## Output 96.7

## Input Entry `CC1=NN(c2ccc([N+](=O)[O-])cc2)C(=O)/C1=C/NCCN1CCN(C(=O)c2ccc(F)cc2)CC1` : reported viability at 28.5 h, 10 µM = ?
## Output 95.1

## Input Entry O=C(CC1(O)C(=O)N(CN2CCOCC2)c2ccccc21)c1ccc2c(c1)OCO2 (centres unmarked) : reported viability at 28.5 h, 10 µM = ?
## Output 99.3

## Input Entry `COc1ccc(CNC(=O)c2ccccc2NS(=O)(=O)c2cc(Cl)ccc2Cl)cc1` : reported viability at 28.5 h, 10 µM = ?
## Output 101

## Input Entry `N#Cc1ccc(NC(=O)CC2(CC(=O)O)CCCC2)cc1` : reported viability at 28.5 h, 10 µM = ?
## Output 89.5

## Input Entry CN(C)S(=O)(=O)c1ccc(C(=O)C2=C(O)C(=O)N(Cc3cccnc3)C2c2ccc(F)cc2)cc1 (centres unmarked) : reported viability at 28.5 h, 10 µM = ?
## Output 94

## Input Entry `CCSc1nnnn1-c1cccc(NC(C)=O)c1` : reported viability at 28.5 h, 10 µM = ?
## Output 94.4

## Input Entry `COc1cc(CNc2cncc(-c3cccs3)n2)cc(OC)c1OC` : reported viability at 28.5 h, 10 µM = ?
## Output 106

## Input Entry `Cc1cc(COc2nccnc2N2CCN(CC3CCCCC3)CC2)no1` : reported viability at 28.5 h, 10 µM = ?
## Output 94.2

## Input Entry `CCNC(=O)N1CCC[C@@H](O)[C@H](NC(=O)c2ccc(OC)cc2)C1` : reported viability at 28.5 h, 10 µM = ?
## Output 88.2

## Input Entry `CCN(CC)C(=O)c1ccccc1NS(=O)(=O)c1ccc(C)cc1` : reported viability at 28.5 h, 10 µM = ?
## Output 88.7

## Input Entry `O=C(O)c1[nH]nc2c1COc1ccccc1-2` : reported viability at 28.5 h, 10 µM = ?
## Output 97.5

## Input Entry CC(SC1CCc2ccccc2NC1=O)C(=O)O (centres unmarked) : reported viability at 28.5 h, 10 µM = ?
## Output 87.1

## Input Entry `Cc1noc(C)c1NC(=O)c1cncn1C` : reported viability at 28.5 h, 10 µM = ?
## Output 115

## Input Entry `COc1ccccc1C(=O)Nc1sc2c(c1C(=O)NCc1ccco1)CCCC2` : reported viability at 28.5 h, 10 µM = ?
## Output 100

## Input Entry Cc1cc2[nH]cc(C(=O)N3CCCC3c3ccco3)c(=O)n2n1 (centres unmarked) : reported viability at 28.5 h, 10 µM = ?
## Output 82.9

## Input Entry COc1cccc(C(NC(=O)c2cccc(Cn3ccnc3C)c2)c2ccccc2)c1 (centres unmarked) : reported viability at 28.5 h, 10 µM = ?
## Output 111

## Input Entry `Cc1cc(C)nc(NS(=O)(=O)c2ccc(Nc3ncnc(N)c3[N+](=O)[O-])cc2)n1` : reported viability at 28.5 h, 10 µM = ?
## Output 96.6

## Input Entry `CCN1CCN(Cc2ccc(OC)c(OCc3ccccc3)c2)CC1` : reported viability at 28.5 h, 10 µM = ?
## Output 89.4

## Input Entry `O=C(NCCc1ccccc1)[C@@H]1C=CCN1C(=O)c1cccs1` : reported viability at 28.5 h, 10 µM = ?
## Output 95.2

## Input Entry COCCOC(=O)N1CCC(C(=O)NC(c2ccc(Cl)cc2)c2cccs2)CC1 (centres unmarked) : reported viability at 28.5 h, 10 µM = ?
## Output 104

## Input Entry `O=C(NCc1ccco1)/C(=C\c1ccccc1)NC(=O)c1ccc(Br)cc1` : reported viability at 28.5 h, 10 µM = ?
## Output 87.7

## Input Entry `COc1ccc(CNS(=O)(=O)c2cc(OCC(N)=O)c(C)cc2Cl)cc1` : reported viability at 28.5 h, 10 µM = ?
## Output 110

## Input Entry `CN1CCN(c2nc(-c3ccco3)cnc2N)CC1` : reported viability at 28.5 h, 10 µM = ?
## Output 109

## Input Entry O=S(=O)(O)c1cc(S(=O)(=O)O)c2cc(O)c(S(=O)(=O)O)cc2c1 [CBK278319N] : reported viability at 28.5 h, 10 µM = ?
## Output 96.7

## Input Entry Cc1cc2c(cc1C)C(O)CC1(CCN(CC(=O)NC3CCCCC3)CC1)O2 (centres unmarked) : reported viability at 28.5 h, 10 µM = ?
## Output 94

## Input Entry CS(=O)(=O)NC1CCN(C2CCc3c(F)cc(F)cc32)C1 (centres unmarked) : reported viability at 28.5 h, 10 µM = ?
## Output 90.1

## Input Entry `c1ccc2c(OCc3nnn[nH]3)cccc2c1` : reported viability at 28.5 h, 10 µM = ?
## Output 103

## Input Entry COc1cccc(N2CCN(CC(CC(=O)Nc3ccccc3)C(=O)O)CC2)c1 (centres unmarked) : reported viability at 28.5 h, 10 µM = ?
## Output 89.8

## Input Entry CCCCN1C(=S)SC(C)(C)C1N(O)C(=O)C1CCCCC1 (centres unmarked) : reported viability at 28.5 h, 10 µM = ?
## Output 95.6

## Input Entry `COCC(=O)NC1CCN(CC2(c3ccc(F)cc3)CCCC2)CC1` : reported viability at 28.5 h, 10 µM = ?
## Output 95.5

## Input Entry `COc1nc2nc(N)nc(N)c2nc1C` : reported viability at 28.5 h, 10 µM = ?
## Output 90.1

## Input Entry CCCC(=O)Nc1c(F)cc(F)cc1OC1CCNCC1 [CBK045892T] : reported viability at 28.5 h, 10 µM = ?
## Output 91.1

## Input Entry `O=C(NNS(=O)(=O)c1ccc([N+](=O)[O-])cc1)Nc1cccc(C(F)(F)F)c1` : reported viability at 28.5 h, 10 µM = ?
## Output 105
